Reported log10 IC50 by item:
- targetEntity: UniProt:B2RXH2
- methodSummary: JMJD2E FDH-coupled assay under low and high iron conditions (iron chelation profile)
- Type: biochemical
- Parameters: The catalytic domain of human JMJD2E (residues 1–337); His6 (N); made in house; host or cells: E. coli
- runParameters: Table S1; high iron, head says 20 µM FAS; unit not in table, from Figure 2; read-out: qHTS Data: jmjd2e fas20um IC50
Recall that a logarithmic scale is used here: each number is log10 of IC50 in µM.

Some compounds with recorded log10 IC50:
>>> df
                                   compound    targetentity  quantityname  obsvalue
0         Oc1ccc(NCc2cccc(OCc3ccccc3)c2)cc1  UniProt:B2RXH2    log10 IC50      1.55
1  COc1ccc(Cn2c(O)c(/C=N/NC(=O)c3ccncc3)c(=O)[nH]c2=O)cc1  UniProt:B2RXH2    log10 IC50      0.95
2                 CNC[C@H](O)c1ccc(O)c(O)c1  UniProt:B2RXH2    log10 IC50      1.10
3                   O=c1c2ccccc2sn1-c1nccs1  UniProt:B2RXH2    log10 IC50      0.60
4         C[C@@](Cc1ccc(O)c(O)c1)(NN)C(=O)O  UniProt:B2RXH2    log10 IC50      1.15

Record `CCOc1cccc(C(=O)c2ccc(O)c(O)c2O)c1` , field log10 IC50: 0.95

Record `CCOC(=O)C1CCN(Cc2ccc(O)c3ncccc23)CC1` , field log10 IC50: 0.30

Record `O=C1C=C(O)c2cccc(O)c2C1=O` , field log10 IC50: 1.30

Record Cc1ccnc(NC(c2cccnc2)c2ccc3cccnc3c2O)c1 (stereo not drawn) , field log10 IC50: 1.15

* * *

- targetEntity: formaldehyde dehydrogenase (FDH) (Pseudomonas putida, UniProt P46154)
- Construct: purchased Sigma-Aldrich
- Sequence (P46154 whole entry): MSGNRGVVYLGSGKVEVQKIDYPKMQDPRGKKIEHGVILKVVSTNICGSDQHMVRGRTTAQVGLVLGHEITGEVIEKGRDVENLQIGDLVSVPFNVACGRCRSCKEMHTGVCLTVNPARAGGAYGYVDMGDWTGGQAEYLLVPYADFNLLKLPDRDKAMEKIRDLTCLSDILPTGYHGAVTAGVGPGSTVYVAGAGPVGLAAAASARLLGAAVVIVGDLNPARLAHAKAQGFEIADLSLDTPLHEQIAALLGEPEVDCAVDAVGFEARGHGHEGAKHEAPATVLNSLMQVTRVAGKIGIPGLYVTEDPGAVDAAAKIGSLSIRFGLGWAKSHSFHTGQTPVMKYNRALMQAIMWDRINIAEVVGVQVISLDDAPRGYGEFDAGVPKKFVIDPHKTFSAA
- methodSummary: FDH coupling enzyme counterscreen
- Type: biochemical
- runParameters: Table S1; FDH counterscreen; unit not in table, from Figure 2; read-out: qHTS Data: jmjd2e fdh IC50
Mark each entry Met if its IC50 sits below 4 µM, and Not met for all others.

Problem: IC50 strictly < 4 µM for this compound? `CCc1ccc2c(O)c3c(cc2c1C(=O)OC)C(=O)c1c(O)ccc(O)c1C3=O`
Solution: Met

Problem: IC50 strictly < 4 µM for this compound? `COc1cccc(/C=N/NC(=O)CNC(=O)CCc2ccccc2)c1O`
Solution: Not met

Problem: IC50 strictly < 4 µM for this compound? `CCN1/C(=C\c2ccc3ccccc3[n+]2CC)Sc2cc(C)ccc21.[I-]`
Solution: Not met

Problem: IC50 strictly < 4 µM for this compound? `O=C(CSc1ncn[nH]1)c1cccc([N+](=O)[O-])c1`
Solution: Met

Problem: IC50 strictly < 4 µM for this compound? `O=C(NO)c1ccccc1O`
Solution: Met

* * *

- targetEntity: formaldehyde dehydrogenase (FDH) (Pseudomonas putida, UniProt P46154)
- Construct: purchased Sigma-Aldrich
- methodSummary: FDH coupling enzyme counterscreen
- Format: biochemical
- runParameters: Table S1; FDH counterscreen; unit not in table, from Figure 2; read-out: qHTS Data: jmjd2e fdh IC50
Reported pIC50 by item:
// pIC50: -log10(molar conc.)

Some molecules with recorded pIC50:
molecule	pIC50
O=C(CC1Sc2ncnn2C1=O)Nc1ccc(Br)cc1 (stereo not drawn)	6.55
O=C(OCC1OC(OC(=O)c2cc(O)c(O)c(OC(=O)c3cc(O)c(O)c(O)c3)c2)[C@@H](OC(=O)c2cc(O)c(O)c(OC(=O)c3cc(O)c(O)c(O)c3)c2)C(OC(=O)c2cc(O)c(O)c(OC(=O)c3cc(O)c(O)c(O)c3)c2)C1OC(=O)c1cc(O)c(O)c(OC(=O)c2cc(O)c(O)c(O)c2)c1)c1cc(O)c(O)c(OC(=O)c2cc(O)c(O)c(O)c2)c1 (stereo partly drawn)	5.10
Cc1ccc(N2C(=O)CC(Sc3ncn[nH]3)C2=O)cc1 (stereo not drawn)	6.49
O=C(/C=C/c1ccccc1)NC(=S)NNC(=O)c1cnccn1	4.45
CNCCc1ccc(O)c(O)c1.Cl	5.50

Record `CC1=CC(=O)c2c(O)cccc2C1=O` , field pIC50: 4.75

Record COc1ccc(NC(=O)CC2Sc3ncnn3C2=O)cc1 (stereo not drawn) , field pIC50: 6.55

Record O=C(OC1Cc2c(O)cc(O)cc2OC1c1cc(O)c(O)c(O)c1)c1cc(O)c(O)c(O)c1 (stereo not drawn) , field pIC50: 4.85

Record `O=c1c(O)cccc2cc(O)c(O)c(O)c12` , field pIC50: 5.20

Record COc1ccc(N2C(=O)CC(Sc3ncn[nH]3)C2=O)c(OC)c1 (stereo not drawn) , field pIC50: 6.49

Record `COc1ccc(Cl)cc1CSc1ncn[nH]1` , field pIC50: 6.49

Record `Cc1cc2c(C(C)C)c(O)c(O)c(C=O)c2c(O)c1-c1c(C)cc2c(C(C)C)c(O)c(O)c(C=O)c2c1O` , field pIC50: 4.50

Record `N#C/C(=C\c1cc(O)c(O)c(O)c1)C(N)=O` , field pIC50: 4.40

Record `CN(N=O)c1ccc(O)c(O)c1` , field pIC50: 4.50

Record `CN(C)S(=O)(=O)c1cccc(-n2sc3ccccc3c2=O)c1` , field pIC50: 5.10

Record CC(C)c1ccc(N2C(=O)CC(Sc3ncn[nH]3)C2=O)cc1 (stereo not drawn) , field pIC50: 6.60

Record `C=CCn1c(SCC(=O)c2ccc(O)c(O)c2)nnc1-c1cccnc1` , field pIC50: 4.85

Record `O=C(CSc1ncn[nH]1)CSc1ncn[nH]1` , field pIC50: 6.00

Record Cc1cccc(N2C(=O)CC(Sc3ncn[nH]3)C2=O)c1 (stereo not drawn) , field pIC50: 6.55

Record O=C(CC1Sc2ncnn2C1=O)Nc1ccccc1 (stereo not drawn) , field pIC50: 6.55

Record CN(C)C1C(=O)C(C(N)=O)=C(O)[C@@]2(O)C(=O)C3=C(O)c4c(O)cccc4[C@@](C)(O)C3CC12.Cl (stereo partly drawn) , field pIC50: 4.80

Record `Cc1cccc(OCC(=O)NCC(=O)N/N=C/c2ccc(O)cc2O)c1` , field pIC50: 6.60

Record `CN[C@@H](C)[C@H](O)c1ccccc1.CN[C@@H](C)[C@H](O)c1ccccc1.O=S(=O)(O)O` , field pIC50: 4.90

Record `O=c1c(-c2cc(O)c(O)c(O)c2)coc2cc(O)c(O)c(O)c12` , field pIC50: 5.40

* * *

- targetEntity: JMJD2E (Homo sapiens, UniProt B2RXH2)
- Sequence (B2RXH2 1-337): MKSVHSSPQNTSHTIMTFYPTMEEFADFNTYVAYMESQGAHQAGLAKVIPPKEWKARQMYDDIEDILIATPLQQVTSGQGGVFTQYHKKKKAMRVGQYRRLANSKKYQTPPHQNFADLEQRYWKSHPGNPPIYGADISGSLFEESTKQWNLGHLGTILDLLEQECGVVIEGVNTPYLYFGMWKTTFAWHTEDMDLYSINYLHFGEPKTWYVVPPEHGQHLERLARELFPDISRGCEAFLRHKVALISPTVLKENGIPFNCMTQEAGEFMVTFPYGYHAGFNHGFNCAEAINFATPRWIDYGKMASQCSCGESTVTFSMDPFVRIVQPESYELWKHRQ
- methodSummary: MALDI-TOF MS demethylation assay, JMJD2E
- runParameters: read-out: MALDI-TOF Data: IC50; Table S1; 2 µM JMJD2E; unit not in table; ~ values are poorly fitted
pIC50: −log10 of the molar value.
Classification field: enter criterion met for pIC50 values not below 5, criterion not met for values below it.

Please review the entries below; each comes with its answer.
>>> print(df.to_string())
                                   compound         labelvalue
0         CC1(C)CCC2=C(O1)c1ccccc1C(=O)C2=O  criterion not met
1  Nc1ccc2nc3c(=O)n(CCc4ccccc4)c(=O)[nH]c3nc2c1  criterion not met
2      O=c1cc(-c2ccccc2)oc2cc(O)c(O)c(O)c12      criterion met

Query compound follows.
Problem: Item CN(C)C1C(=O)C(C(N)=O)=C(O)[C@@]2(O)C(=O)C3=C(O)c4c(O)cccc4[C@@](C)(O)C3[C@H](O)C12 (stereo partly drawn) with pIC50 of 5 or above?
Solution: criterion not met

* * *

Reported pIC50 by item:
- targetEntity: JMJD2E (Homo sapiens)
- methodSummary: JMJD2E FDH-coupled assay under low and high iron conditions (iron chelation profile)
- Assay type: biochemical
- Design: The catalytic domain of human JMJD2E (residues 1–337); His6 (N); made in house; host or cells: E. coli
- runParameters: Table S1; high iron, head says 20 µM FAS; unit not in table, from Figure 2; read-out: qHTS Data: jmjd2e fas20um IC50
// pIC50: -log10(molar conc.)

Some molecules with recorded pIC50:
>>> df
                                   molecule  obsvalue
0  O=C(/C=C/c1ccccc1)NC(=S)NNC(=O)c1cnccn1 [compound 26725782]      5.15
1  O=Cc1ccc(O)c2ncccc12 [compound 26664581]      4.25
2  O=C1c2ccc(O)c(O)c2C(=O)c2c(O)ccc(O)c21 [compound 26749241]      4.80
3  N[C@H](Cc1ccc(O)c(O)c1)C(=O)O [compound 50106235]      4.90
4  Cl.NCCc1ccc(O)c(O)c1 [compound 50106387]      5.40
5  COc1ccc(NC(=O)CC2Sc3ncnn3C2=O)cc1 (centres unmarked) [compound 7968088]      4.90
6  Cc1ccc(N2C(=O)CC(Sc3ncn[nH]3)C2=O)cc1 (centres unmarked) [compound 14726735]      4.50
7  N#C/C(=C\c1cc(O)c(O)c(O)c1)C(N)=O [compound 26725225]      5.05
8  Oc1c(C(Nc2nccs2)c2ccc(C(F)(F)F)cc2)ccc2cccnc12 (centres unmarked) [compound 24832893]      4.90
9  C/C(=N\Nc1ccc2nncn2n1)c1ccccn1 [compound 26664046]      5.05

Record O=C(O)c1cccc(C(=O)O)n1 [compound 863941] , field pIC50: 5.10

Record O=c1c(O)cccc2cc(O)c(O)c(O)c12 [compound 26665710] , field pIC50: 4.90

Record Cl.NCCc1cc(O)c(O)cc1O [compound 26748180] , field pIC50: 5.10

Record Oc1cc(O)c2c(c1)OC(c1cc(O)c(O)c(O)c1)C(O)C2 (centres unmarked) [compound 26749553] , field pIC50: 5.50

Record COc1ccc(-c2cc(=O)n(CCC#N)[nH]2)cc1 [compound 17508964] , field pIC50: 4.90

Record COC(=O)c1cc(=O)c(O)c2c(O)c(O)ccc2c1 [compound 26749939] , field pIC50: 4.65

Record C(=N\Nc1nc(-c2ccccn2)nc2ccccc12)/c1ccccc1 [compound 26666061] , field pIC50: 5.00

Record C=CCn1c(SCC(=O)c2ccc(O)c(O)c2)nnc1-c1cccnc1 [compound 26671532] , field pIC50: 5.90

Record O=C(CC1Sc2ncnn2C1=O)Nc1ccc(Br)cc1 (centres unmarked) [compound 7966079] , field pIC50: 6.00

Record COc1cccc(/C=N/NC(=O)CNC(=O)CCc2ccccc2)c1O [compound 26660959] , field pIC50: 4.90
